Please provide measured IC50 for the entries that follow.
test.target: c-Myc template DNA (c-myc quadruplex)
test.summary: Quadruplex binding / stop assay (Taq polymerase arrest, capillary electrophoresis)
details: read-out: Stop Data c-Myc μM; concentration at which 50% of the DNA was arrested (arrested:full-length 1:1)
Answers are plain numbers, in µM.

Worked cases, answers included:
- CN1CCCC1CCNC(=O)c1cn2c3c(c(NCCc4c[nH]cn4)c(F)cc3c1=O)Oc1cc3ccccc3cc1-2 (centres unmarked): 0.375
- CN1CCCC1CCNc1c(F)cc2c(=O)c(C(=O)NCCN3CCCC3)cn3c4cc5c(cc4oc1c23)c(=O)c1ccccc15 (centres unmarked): 0.375
- CN(C)CCCCNC(=O)c1cn2c3cc4c(=O)c5ccccc5c(=O)c4cc3oc3c(NCCN4CCCC4)c(F)cc(c1=O)c32: 0.18
- CN(C)CCCCNc1ccc2c(=O)c(C(=O)NC3CC(C)(C)NC(C)(C)C3)cn3c2c1Oc1cc2ccccc2cc1-3: 1.75

For the molecule `N[C@@H]1CCN(C(=O)c2cn3c4c(c(NCCN5CCCC5)c(F)cc4c2=O)Oc2c-3ccc3ccccc23)C1` , what IC50 is on record?
2.5

* * *

Answer each item with its documented IC50.
test.target: c-Myc template DNA (c-myc quadruplex)
test.summary: Quadruplex binding / stop assay (Taq polymerase arrest, capillary electrophoresis)
details: read-out: S DATA; Table 1D, stop assay data

Worked cases, IC50 given:
* CC1(C)CC(NC(=O)c2cn3c4c(c(N5CCC(N)C5)c(F)cc4c2=O)Oc2ccccc2-3)CC(C)(C)N1 (centres unmarked) | > 15 µM
* CC(C)(C)OC(=O)NC1CCN(c2ccc3c(=O)c(C(=O)NCCN4CCCC4)cn4c3c2Oc2cc3ccccc3cc2-4)C1 (centres unmarked) | > 15 µM
* CN1CCN(C(=O)c2cn3c4c(c(NCCN5CCCC5)c(F)cc4c2=O)Oc2ccccc2-3)CC1 | > 15 µM
* NC1CCN(c2c(F)cc3c(=O)c(C(=O)NCCCN4CCOCC4)cn4c3c2Oc2ccccc2-4)C1 (centres unmarked) | > 15 µM
* CN(C)CCCCNC(=O)c1cn2c3c(c(NCCCN4CCN(C)CC4)c(F)cc3c1=O)Oc1ccccc1-2 | > 15 µM
* CC1(C)CC(NC(=O)c2cn3c4c(c(NCCCN5CCOCC5)ccc4c2=O)Oc2cc4ccccc4cc2-3)CC(C)(C)N1 | > 15 µM

// for each compound in input: emit IC50
1. O=C(NCCN1CCOCC1)c1cn2c3c(c(NCCCN4CCOCC4)ccc3c1=O)Oc1cc3ccccc3cc1-2
2. CN1CCN(CCCNc2c(F)cc3c(=O)c(C(=O)NCCCCNC(=N)N)cn4c3c2Oc2ccccc2-4)CC1

> 15 µM
> 15 µM

Hi there! I need IC50 for each item below, if you can.
1. COc1cccc(CCNC(=O)c2cn3c4c(c(N5CCC(N)C5)c(F)cc4c2=O)Oc2cc4ccccc4cc2-3)c1OC (centres unmarked)
2. O=C(c1cn2c3c(c(N4CC5CCCNC5C4)c(F)cc3c1=O)Oc1cc3ccccc3cc1-2)N1CCC(N2CCCC2)CC1 (centres unmarked)
3. CN(C)CC(C)(C)CNC(=O)c1cn2c3c(c(NCCCN4CCN(C)CC4)c(F)cc3c1=O)Oc1ccccc1-2
4. CC(C)C(CO)Nc1c(F)cc2c(=O)c(C(=O)NCCC3CCCN3C)cn3c2c1Oc1cc2ccccc2cc1-3 (centres unmarked)
5. O=C(NCCN1CCOCC1)c1cn2c3c(c(N4CCC(c5cnccn5)C4)c(F)cc3c1=O)Oc1ccc(Cl)cc1-2 (centres unmarked)
6. CC(CNc1c(F)cc2c(=O)c(C(=O)NCCC3CCCN3C)cn3c2c1Oc1cc2ccccc2cc1-3)Oc1ccccn1 (centres unmarked)
7. O=C(NCCN1CCCC1)c1cn2c3c(c(N4CCC(c5cnccn5)C4)c(F)cc3c1=O)Oc1ccccc1-2 (centres unmarked)

> 15 µM
> 15 µM
> 15 µM
> 15 µM
> 15 µM
9.7 µM
11 µM

Here are 2 compounds. What values of IC50 were reported for them?
1. CN(C)CC(C)(C)CNC(=O)c1cn2c3c(c(N4CCC(N)C4)c(F)cc3c1=O)Oc1ccccc1-2 (centres unmarked)
2. CN1CCCC1CCNC(=O)c1cn2c3c(c(NCCCO)c(F)cc3c1=O)Oc1cc3ccccc3cc1-2 (centres unmarked)

["> 15 µM", "1.75 µM"]

* * *

test.target: c-Myc template DNA (c-myc quadruplex)
test.summary: Quadruplex binding / stop assay (Taq polymerase arrest, capillary electrophoresis)
details: read-out: Stop Data c-Myc μM; concentration at which 50% of the DNA was arrested (arrested:full-length 1:1)
Assign IC50 to each entry below.
One number for each entry, in µM.

- CN1CCCC1CCNc1ccc2c(=O)c(C(=O)NC3CC(C)(C)NC(C)(C)C3)cn3c2c1Oc1cc2ccccc2cc1-3 (centres unmarked) [compound 270]: 1.75

I need IC50 for every entry listed below, if you could help.
1. CN1CCCC1CCNCC(=O)N[C@@H]1CCN(c2c(F)cc3c(=O)c(C(=O)NCCC4CCCN4C)cn4c3c2Oc2cc3c(cc2-4)oc2ccccc23)C1 (some centres unmarked) [compound 410]
2. O=C(c1cn2c3c(c(NCCN4CCCC4)c(F)cc3c1=O)Oc1cc3ccccc3cc1-2)N1CCOCC1 [compound 43]
3. CNC1CCN(c2c(F)cc3c(=O)c(C(=O)NCCC4CCCN4C)cn4c3c2Oc2cc3ccccc3cc2-4)C1 (centres unmarked) [compound 430]
4. CN1CCN(CCCNC(=O)c2cn3c4c(c(NCCC5CCCN5C)c(F)cc4c2=O)Oc2cc4c(cc2-3)oc2ccccc24)CC1 (centres unmarked) [compound 364]
5. CC(C)(C)OC(=O)N[C@H]1CCN(c2c(F)cc3c(=O)c(C(=O)NCCN4CCCC4)cn4c5cc6c(cc5oc2c34)c(=O)c2ccccc26)C1 [compound 202]
6. Nc1c(F)c(NCCCN2CCOCC2)c2c3c1c(=O)c(C(=O)NCCN1CCOCC1)cn3-c1cc3ccccc3cc1O2 [compound 221]
7. CCOC(CCCNc1c(F)cc2c(=O)c(C(=O)NCCC3CCCN3C)cn3c2c1Oc1cc2ccccc2cc1-3)OCC (centres unmarked) [compound 463]

1. 0.75
2. 2.5
3. 0.75
4. 0.75
5. 1.75
6. 1.75
7. 0.75

* * *

Please go through the items and note down their IC50.
test.target: c-Myc template DNA (c-myc quadruplex)
test.summary: Quadruplex binding / stop assay (Taq polymerase arrest, capillary electrophoresis)
details: read-out: S DATA; Table 1D, stop assay data

Illustrative cases are given below, each with its answer.
* CN(C)CC(C)(C)CNC(=O)c1cn2c3c(c(NCCN4CCCC4)c(F)cc3c1=O)Oc1ccccc1-2 | > 15 µM
* CN1CCCC1CCNC(=O)c1cn2c3c(c(N(C)C4CCCCNC4)c(F)cc3c1=O)Oc1cc3ccccc3cc1-2 (stereo not shown) | > 15 µM
* CN1CCN(CCCNc2c(F)cc3c(=O)c(C(=O)N4CCC(N5CCCC5)CC4)cn4c3c2Oc2ccccc2-4)CC1 | > 15 µM

Record IC50 for all entries; do not skip any.
1. CN(C)CC(C)(C)CNC(=O)c1cn2c3c(c(N4CCC(NC(=O)OC(C)(C)C)C4)c(F)cc3c1=O)Oc1ccccc1-2 (stereo not shown)
2. O=C(NCCN1CCOCC1)c1cn2c3c(c(NCCN4CCCC4)c(F)cc3c1=O)Oc1ccccc1-2
3. O=C(NCCN1CCOCC1)c1cn2c3c(c(N4CCC(c5cnccn5)C4)c(F)cc3c1=O)Oc1cc(Cl)ccc1-2 (stereo not shown)
4. CC(C)(C)OC(=O)NC1CCN(C(=O)c2cn3c4c(c(N5CCC(NC(=O)OC(C)(C)C)C5)c(F)cc4c2=O)Oc2ccccc2-3)C1 (stereo not shown)

["> 15 µM", "> 15 µM", "> 15 µM", "> 15 µM"]

Could you tell me IC50 for each of these compounds? They are listed below.
1. CN1CCCC1CCNC(=O)c1cn2c3c(c(N4CCC(c5cccnc5)C4)c(F)cc3c1=O)Oc1cc3ccccc3cc1-2 (stereo not shown)
2. CC(C)N1CCN(c2c(F)cc3c(=O)c(C(=O)NCCN4CCOCC4)cn4c3c2Oc2cc(Cl)ccc2-4)CC1
3. CC(C)N1CCN(c2c(F)cc3c(=O)c(C(=O)NCCN4CCCC4)cn4c3c2Oc2cc(Cl)ccc2-4)CC1
4. CN1CCCC1CCNC(=O)c1cn2c3c(c(N4CCC(N)CC4)c(F)cc3c1=O)Oc1cc3ccccc3cc1-2 (stereo not shown)
5. O=C(NCCN1CCOCC1)c1cn2c3c(c(NCCN4CCOCC4)c(F)cc3c1=O)Oc1ccccc1-2

0.75 µM
> 15 µM
8 µM
1.75 µM
> 15 µM

For each of the compounds below, note its IC50.
1. CN1CCCC1CCNC(=O)c1cn2c3c(c(NCCCCN4CCCC4)c(F)cc3c1=O)Oc1cc3ccccc3cc1-2 (stereo not shown)
2. CN1CCN(CCCNc2ccc3c(=O)c(C(=O)NCCN4CCOCC4)cn4c3c2Oc2cc3ccccc3cc2-4)CC1
3. CN(C)CCCCNC(=O)c1cn2c3c(c(N4CCC(NC(=O)OC(C)(C)C)C4)c(F)cc3c1=O)Oc1ccccc1-2 (stereo not shown)
4. CN1CCCC1CCNC(=O)c1cn2c3c(c(N4CCC(N5CCCC5)CC4)c(F)cc3c1=O)Oc1cc3ccccc3cc1-2 (stereo not shown)
5. NC1CCN(c2ccc3c(=O)c(C(=O)NCCCN4CCOCC4)cn4c3c2Oc2cc3ccccc3cc2-4)C1 (stereo not shown)
6. CCCCOCCCNC(=O)c1cn2c3c(c(N4CCC(N)C4)c(F)cc3c1=O)Oc1cc3ccccc3cc1-2 (stereo not shown)

1. 0.75 µM
2. 1.75 µM
3. > 15 µM
4. 0.75 µM
5. 0.75 µM
6. > 15 µM

Please give IC50 for each item listed below.
1. CCN(CC)CCCC(C)NC(=O)c1cn2c3c(c(N4CC5CCCNC5C4)c(F)cc3c1=O)Oc1ccccc1-2 (stereo not shown)
2. CC1(C)CC(NC(=O)c2cn3c4c(c(N5CC6CCCNC6C5)c(F)cc4c2=O)Oc2cc4ccccc4cc2-3)CC(C)(C)N1 (stereo not shown)
3. CN1CCN(CCCNC(=O)c2cn3c4c(c(NCCN5CCCC5)c(F)cc4c2=O)Oc2ccccc2-3)CC1
4. O=C(NCCCN1CCOCC1)c1cn2c3c(c(NCCCN4CCOCC4)c(F)cc3c1=O)Oc1ccccc1-2

["> 15 µM", "0.5 µM", "> 15 µM", "> 15 µM"]
